Give inhibition at 3 µM for every item shown.
tested_system: Human CaV2.2 channels (Homo sapiens)
Construct: expressed in transfected cells; Kir2.3 also stably co-expressed
Sequence (Q00975 whole entry): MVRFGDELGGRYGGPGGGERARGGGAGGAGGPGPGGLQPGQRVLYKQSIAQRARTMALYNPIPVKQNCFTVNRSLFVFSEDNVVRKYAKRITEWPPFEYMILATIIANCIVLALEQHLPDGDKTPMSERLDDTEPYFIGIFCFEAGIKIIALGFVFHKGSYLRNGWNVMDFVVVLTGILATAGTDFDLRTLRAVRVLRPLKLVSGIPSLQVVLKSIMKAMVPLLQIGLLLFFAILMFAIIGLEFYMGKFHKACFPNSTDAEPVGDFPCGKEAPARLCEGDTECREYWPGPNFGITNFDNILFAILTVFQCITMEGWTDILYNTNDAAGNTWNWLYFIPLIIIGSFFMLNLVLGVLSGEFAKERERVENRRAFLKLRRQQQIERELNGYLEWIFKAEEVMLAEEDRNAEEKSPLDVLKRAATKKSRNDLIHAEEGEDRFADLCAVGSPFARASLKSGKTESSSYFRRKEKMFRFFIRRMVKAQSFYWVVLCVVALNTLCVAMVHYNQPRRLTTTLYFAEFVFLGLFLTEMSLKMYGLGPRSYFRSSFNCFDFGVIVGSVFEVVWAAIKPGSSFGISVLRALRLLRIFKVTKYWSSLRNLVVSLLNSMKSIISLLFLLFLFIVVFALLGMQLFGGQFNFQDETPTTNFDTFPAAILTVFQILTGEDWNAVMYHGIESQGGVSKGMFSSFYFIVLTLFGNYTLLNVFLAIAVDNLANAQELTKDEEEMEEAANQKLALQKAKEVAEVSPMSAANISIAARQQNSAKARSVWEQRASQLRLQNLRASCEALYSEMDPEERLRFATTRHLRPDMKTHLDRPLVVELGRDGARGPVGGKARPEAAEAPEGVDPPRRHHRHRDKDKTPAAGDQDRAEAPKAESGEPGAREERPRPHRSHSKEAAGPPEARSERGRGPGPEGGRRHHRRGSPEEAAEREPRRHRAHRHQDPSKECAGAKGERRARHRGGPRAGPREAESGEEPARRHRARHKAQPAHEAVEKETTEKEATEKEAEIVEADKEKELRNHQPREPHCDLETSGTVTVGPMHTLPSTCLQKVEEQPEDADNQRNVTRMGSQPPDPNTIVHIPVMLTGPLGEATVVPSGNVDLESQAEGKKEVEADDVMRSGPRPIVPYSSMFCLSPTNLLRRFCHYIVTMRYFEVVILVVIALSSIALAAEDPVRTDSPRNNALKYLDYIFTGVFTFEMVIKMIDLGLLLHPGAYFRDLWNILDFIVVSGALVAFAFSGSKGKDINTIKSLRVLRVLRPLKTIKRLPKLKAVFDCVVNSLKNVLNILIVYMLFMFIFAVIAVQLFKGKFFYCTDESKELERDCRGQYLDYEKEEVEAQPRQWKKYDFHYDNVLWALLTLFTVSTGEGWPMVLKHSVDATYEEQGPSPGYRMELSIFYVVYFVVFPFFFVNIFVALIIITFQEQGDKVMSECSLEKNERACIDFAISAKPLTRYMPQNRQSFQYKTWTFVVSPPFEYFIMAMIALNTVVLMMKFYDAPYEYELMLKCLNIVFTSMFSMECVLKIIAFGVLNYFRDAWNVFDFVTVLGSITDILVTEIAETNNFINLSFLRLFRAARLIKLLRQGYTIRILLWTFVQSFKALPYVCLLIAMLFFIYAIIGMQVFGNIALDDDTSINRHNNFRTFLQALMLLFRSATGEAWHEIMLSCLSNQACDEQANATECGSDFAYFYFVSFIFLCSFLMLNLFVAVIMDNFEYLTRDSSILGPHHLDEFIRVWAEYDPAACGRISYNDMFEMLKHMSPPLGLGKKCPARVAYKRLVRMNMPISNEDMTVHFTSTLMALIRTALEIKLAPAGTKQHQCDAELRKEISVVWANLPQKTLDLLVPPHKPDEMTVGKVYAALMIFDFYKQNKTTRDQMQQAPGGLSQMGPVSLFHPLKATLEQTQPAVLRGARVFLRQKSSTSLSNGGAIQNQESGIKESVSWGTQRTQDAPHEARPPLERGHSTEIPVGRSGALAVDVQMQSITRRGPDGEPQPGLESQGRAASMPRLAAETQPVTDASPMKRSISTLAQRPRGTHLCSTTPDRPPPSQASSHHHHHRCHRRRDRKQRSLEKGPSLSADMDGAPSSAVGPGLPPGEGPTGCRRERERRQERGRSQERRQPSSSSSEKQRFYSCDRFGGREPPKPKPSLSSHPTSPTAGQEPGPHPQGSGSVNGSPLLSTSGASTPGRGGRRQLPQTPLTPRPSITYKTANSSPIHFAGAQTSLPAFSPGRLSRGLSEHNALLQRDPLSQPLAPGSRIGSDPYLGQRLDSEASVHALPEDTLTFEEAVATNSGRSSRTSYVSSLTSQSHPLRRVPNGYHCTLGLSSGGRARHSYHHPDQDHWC
test_method_notes: Fluorescence assay for CaV2.2 channels using potassium depolarization to induce channel opening (FLIPR, Fluo 4)
Type: cell-based
conditions: HEK293, 3 μM test compound, 30 mM KCl assay buffer (inactivated channel state), HEK293 cells; read-out: Activity Category: %-Inhib (CaV2.2) @3 μM @30 mM KCl

[[record]]
compound = "CC1(S(=O)(=O)c2cccc(C(F)(F)F)c2)CCOC(c2ccc(S(C)(=O)=O)cc2F)C1 (stereo not shown)"
measured_result = "> 95%"

[[record]]
compound = "O=S(=O)(c1cccc(C(F)(F)F)c1)C1CCOC(c2ccc(Cl)cc2)C1 (stereo not shown)"
measured_result = "75 to 95%"

[[record]]
compound = "Cc1cc(Cl)ccc1C1CC(C)(S(=O)(=O)c2cccc(C(F)(F)F)c2)CCO1 (stereo not shown)"
measured_result = "75 to 95%"

[[record]]
compound = "CC1(S(=O)(=O)c2cccc(C(F)(F)F)c2)CCOC(c2ccc(S(C)(=O)=O)cc2Cl)C1 (stereo not shown)"
measured_result = "> 95%"

[[record]]
compound = "CCC1(S(=O)(=O)c2cccc(C(F)(F)F)c2)CCOC(c2ccc(Cl)cc2)C1 (stereo not shown)"
measured_result = "> 95%"


Respectfully, I request inhibition at 3 µM for each entry included below.
1. CC1(S(=O)(=O)c2cccc(C(F)(F)F)c2)CCOC(c2ccc(C#N)cc2S(C)(=O)=O)C1 (stereo not shown)
2. CC1(S(=O)(=O)c2cccc(C(F)(F)F)n2)CCOC(c2ccc(S(C)(=O)=O)c(F)c2)C1 (stereo not shown)
3. CC1(S(=O)(=O)c2cccc(C(F)(F)F)c2)CCOC(c2ccc(S(C)(=O)=O)c(Cl)c2)C1 (stereo not shown)
4. CC1(S(=O)(=O)c2cccc(C(F)F)c2)CCOC(c2ccc(S(C)(=O)=O)cc2F)C1 (stereo not shown) [SC-509]
5. CC1(S(=O)(=O)c2cccc(C(F)(F)F)c2)COC(c2ccc(Cl)cc2)C1 (stereo not shown)
6. CC1(S(=O)(=O)c2cccc(C(F)(F)F)c2)CCOC(c2ccc(C#N)c(S(C)(=O)=O)c2)C1 (stereo not shown)

Output:
1. > 95%
2. 40 to 75%
3. > 95%
4. 75 to 95%
5. 75 to 95%
6. > 95%

Report inhibition at 3 µM for every entry below.
1. Cc1cc(S(C)(=O)=O)ccc1C1CC(C)(S(=O)(=O)c2cccc(C(F)(F)F)c2)CCO1 (stereo not shown)
2. CC(C)c1cccc(S(=O)(=O)C2(C)CCOC(c3ccc(S(C)(=O)=O)cc3F)C2)c1 (stereo not shown) [SC-506]
3. CC1(S(=O)(=O)c2cccc(C(F)(F)F)c2)CCOC(c2cc(C(F)(F)F)cc(S(C)(=O)=O)c2)C1 (stereo not shown)
4. CC1(S(=O)(=O)c2cccc(C(F)(F)F)c2)CCOC(c2cc(S(C)(=O)=O)ccc2C#N)C1 (stereo not shown)
5. CC1(S(=O)(=O)c2cc(F)cc(C(F)(F)F)c2)CCOC(c2ccc(S(C)(=O)=O)cc2F)C1 (stereo not shown) [SC-518]

Output:
1. 75 to 95%
2. > 95%
3. > 95%
4. 75 to 95%
5. 75 to 95%
